Tested on: S. aureus
Assay: Minimum inhibitory concentrations (MICs) for S. aureus of exemplary compounds (Table 2)
Assay type: cell-based
Details: Staphylococcus aureus, minimum inhibitory concentrations for S. aureus; read-out: MICs
Source text: Exemplary compounds in accordance with the invention are listed in Table 2 with their minimum inhibitory concentrations (MICs) (μg/mL) for S. aureus: Furthermore, the antibiotic compounds can be assayed for anti-proliferative or anti-infective properties on a cellular level. For example, where the target organism is a microorganism, the activity of compounds of interest can be assayed by growing the microorganisms of interest in media either containing or lacking the compound. […]
Classify: Met when MIC is strictly less than 1 mg/L; Not met when MIC is not.

Exam item: Take the molecule `CC(=O)NC[C@H]1CN(c2ccc(-c3ccc(CNCc4cn(C)c5ccccc45)cc3)c(F)c2)C(=O)O1` and say whether its MIC is less than 1 mg/L.
Marked response: Not met

* * *

Listed here are molecules together with their documented MIC.
Tested on: S. aureus
Assay: Minimum inhibitory concentrations (MICs) for S. aureus of exemplary compounds (Table 2)
Format: cell-based
Conditions: Staphylococcus aureus, minimum inhibitory concentrations for S. aureus; read-out: MICs
Answer in µg/mL, number only, no unit symbol.

// solved cases for MIC follow
>>> test_value("CC(=O)NC[C@H]1CN(c2ccc(-c3ccc(C(O)Cc4nnn[nH]4)cc3)c(F)c2)C(=O)O1 (stereo in doubt)")
64
>>> test_value("CC(=O)NC[C@H]1CN(c2ccc(-c3ccc(CNCC(CF)n4ccnn4)cc3)c(F)c2)C(=O)O1 (stereo partly shown)")
2
>>> test_value("CC(=O)NC[C@H]1CN(c2ccc(-c3ccc(Cn4cncc4C)cc3)c(F)c2)C(=O)O1")
1
>>> test_value("CC(=O)NC[C@H]1CN(c2ccc(-c3ccc(CNCc4ccon4)cc3)c(F)c2)C(=O)O1")
1
>>> test_value("COc1ccc2[nH]cc(CNCc3ccc(-c4ccc(N5C[C@H](CNC(C)=O)OC5=O)cc4F)cc3)c2c1")
2
>>> test_value("CC(=O)NC[C@H]1CN(c2ccc(-c3ccc(CNCc4ccc([N+](=O)[O-])o4)cc3)c(F)c2)C(=O)O1")
1

Exam item: Which MIC reading was recorded for the molecule `CC(=O)NC[C@H]1CN(c2ccc(-c3ccc(CNCc4ccncc4)c(F)c3)c(F)c2)C(=O)O1` ?
Marked response: 2

* * *

Listed here are compounds together with their documented MIC.
Tested on: S. aureus
Assay: Minimum inhibitory concentrations (MICs) for S. aureus of exemplary compounds (Table 2)
Format: cell-based
Conditions: Staphylococcus aureus, minimum inhibitory concentrations for S. aureus; read-out: MICs
Answer in µg/mL, number only, no unit symbol.

// solved cases for MIC follow
>>> test_value("CC(=O)NC[C@H]1CN(c2ccc(-c3ccc(CN4CCN(CC(N)=O)CC4)cc3)c(F)c2)C(=O)O1")
2
>>> test_value("COc1ncccc1CNCc1ccc(-c2ccc(N3C[C@H](CNC(C)=O)OC3=O)cc2F)cc1")
2

# input for lookup
Exam item: Which MIC reading was recorded for the compound `CC(=O)NC[C@H]1CN(c2ccc(-c3ccc(CNCc4ccc(CO)o4)cc3)c(F)c2)C(=O)O1` ?
Marked response: 2

* * *

Test system: S. aureus
Assay: Minimum inhibitory concentrations (MICs) for S. aureus of exemplary compounds (Table 2)
Format: cell-based
Conditions: Staphylococcus aureus, minimum inhibitory concentrations for S. aureus; read-out: MICs
value-kind: MIC (µg/mL)
Answer in µg/mL, number only, no unit symbol.

>>> test_value("CC(=O)NC[C@H]1CN(c2ccc(-c3ccc(CNC(=O)Cn4ccnn4)cc3)c(F)c2)C(=O)O1")
2
>>> test_value("CC(=O)NC[C@H]1CN(c2ccc(-c3ccc(NC(=O)Nc4ccncc4)cc3)c(F)c2)C(=O)O1")
128
>>> test_value("CC(=O)NC[C@H]1CN(c2ccc(-c3ccc(CNCCCN4CCCC4=O)cc3)c(F)c2)C(=O)O1")
16

# input for lookup
Exam item: Item: `CC(=O)NC[C@H]1CN(c2ccc(-c3ccc(COCc4ccccn4)cn3)c(F)c2)C(=O)O1` Test system: S. aureus Read-out: MIC Value: ?
Marked response: 4

Attribution: patent US10471046B2
